Assay: Clearance in mouse hepatocytes assessed per million cells
Assay type: ADME, cell-based, Hepatocyte
Conditions: read-out: CLH
assay-readout: hepatocyte CLint (µL/min/1e6 cells)

Take a look at these entries with their results.
Cc1cc(N2C[C@H]3CC[C@@H](C2)[C@@H]3Nc2nc3c(OCC(F)(F)F)ccc(C(F)(F)F)n3n2)sn1 :: 19
Cc1cc(N2C[C@H]3CC[C@@H](C2)[C@@H]3Nc2nc3c(O[C@@H](C)C(F)(F)F)cccn3n2)sn1 :: 36
Cc1noc(N2C[C@H]3CC[C@@H](C2)[C@@H]3Nc2nc3c(OCC(F)(F)C(F)(F)F)cccn3n2)n1 :: 11
Cc1nsc(N2C[C@H]3CC[C@@H](C2)[C@@H]3Nc2nc3c(OCCC(F)(F)F)cccn3n2)n1 :: 21

(A) Cc1noc(N2C[C@H]3CC[C@@H](C2)[C@@H]3Nc2nc3c(OCC(F)(F)F)cccn3n2)n1
(B) FC(F)(F)COc1cccn2nc(N[C@@H]3[C@@H]4CC[C@H]3CN(c3ccnc(C(F)(F)F)c3)C4)nc12
(C) COc1cccn2nc(N[C@@H]3[C@@H]4CC[C@H]3CN(c3nc(C)ns3)C4)nc12
Ask: Exam item: list the entries in increasing order of hepatocyte CLint. Submit the labels in the order that the ranking request calls for.
Reply: A, B, C

###

Assay: Octanol/water distribution co-efficient, log D of the compound at pH 7.4
Format: physicochemical
assay-readout: logD

Cc1cc(N2C[C@H]3CC[C@@H](C2)[C@@H]3Nc2nc3c(OCC(F)(F)C(F)(F)F)cccn3n2)on1 :: 4.1
Cc1cc(N2C[C@H]3CC[C@@H](C2)[C@@H]3Nc2nc3c(OCC(F)(F)F)ccc(C(F)(F)F)n3n2)sn1 :: 4.1
Cc1nsc(N2C[C@H]3CC[C@@H](C2)[C@@H]3Nc2nc3c(OCCC(F)(F)F)cccn3n2)n1 :: 3.36
Cc1cc(N2C[C@H]3CC[C@@H](C2)[C@@H]3Nc2nc3c(O[C@@H](C)C(F)(F)F)cccn3n2)sn1 :: 3.81

###

Assay: Modulation of mouse gamma secretase assessed as reduction in Abeta42 production
pIC50: −log10 of the molar value.
assay-readout: pIC50

Sample answers from the record:
FC(F)(F)COc1cccn2nc(N[C@@H]3[C@@H]4CC[C@H]3CN(c3ccnc(C(F)(F)F)c3)C4)nc12 :: 7.68
Cc1nsc(N2CC3CCC(C2)C3Nc2nc3c(-c4ccc(F)c(F)c4F)cccn3n2)n1 (configuration not stated) :: 8.40
Cc1cc(N2C[C@H]3CC[C@@H](C2)[C@@H]3Nc2nc3c(OCC(F)F)ccc(C(F)(F)F)n3n2)ncn1 :: 7.96

(1) Cc1cc(N2C[C@H]3CC[C@@H](C2)[C@@H]3Nc2nc3c(OCC(F)(F)F)ccc(C(F)(F)F)n3n2)sn1
(2) Cc1nnc(N2C[C@H]3CC[C@@H](C2)[C@@H]3Nc2nc3c(OC(C)C(F)(F)F)ccc(C(F)(F)F)n3n2)o1 (some centres not stated)
Ask: Looking only at measured pIC50, which entry is lower, 1 or 2 ? # respond with the chosen item's label
Reply: 2
(2: 7.70, 1: 8.70)

###

Experiment: Dark toxicity in human Melanocytes assessed as reduction in cell viability
Format: cell-based, Melanocyte
pIC50: −log10 of the molar value.
assay-readout: pIC50

Ask: Looking for the measured pIC50 of Cc1nsc(N2CC3CCC(C2)C3Nc2nc3c(-c4ccc(F)c(F)c4F)cccn3n2)n1 (stereo unspecified) , can you help?
Reply: < 4.42
